Data origin, for the record: patent US8063108B2

Each record here notes measured Signal 671/672.
Molecular target: LasR transcriptional activator (Pseudomonas aeruginosa, UniProt P25084)
Construct: expressed in transfected cells; host or cells: Pseudomonas putida F117 carrying plasmid pKRC12 (lasR, PlasB-gfp)
Sequence (P25084 whole entry): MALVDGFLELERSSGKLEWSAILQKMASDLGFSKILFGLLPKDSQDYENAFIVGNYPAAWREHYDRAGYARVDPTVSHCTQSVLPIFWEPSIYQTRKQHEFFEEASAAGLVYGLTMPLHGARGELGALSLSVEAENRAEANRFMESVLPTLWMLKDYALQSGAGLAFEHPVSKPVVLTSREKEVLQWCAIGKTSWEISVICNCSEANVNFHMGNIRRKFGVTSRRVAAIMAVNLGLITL
Assay: Screen signal of thiocarbamate compounds (Table 1), GFP AHL sensor strain with LasR
Format: cell-based
The answer should be a number; do not append a unit.

COC(=O)c1ccccc1NC(=O)CSC(N)=O: 135505

Qu. Lab request: please report Signal 671/672 under test system LasR transcriptional activator (Pseudomonas aeruginosa, UniProt P25084) for COc1ccc(NC(=O)CSC(N)=O)cc1
Ans. 580722

Qu. And NC(=O)SCC(=O)Nc1cccc(Cl)c1 ?
Ans. 71274

Qu. And Cc1ccc(NC(=O)CSC(N)=O)c(C)c1 ?
Ans. 120271

Qu. And NC(=O)SCC(=O)Nc1ccc(Br)cc1 ?
Ans. 99889

Qu. And COc1ccccc1NC(=O)CSC(N)=O ?
Ans. 99128

Qu. And NC(=O)SCC(=O)Nc1cccc(F)c1 ?
Ans. 100580

Qu. And NC(=O)SCC(=O)Nc1ccccc1O ?
Ans. 31966

Qu. And CC(=O)c1ccc(NC(=O)CSC(N)=O)cc1 ?
Ans. 464145

Qu. And COc1ccc(NC(=O)CSC(N)=O)c(OC)c1 ?
Ans. 358647

Qu. And Cc1cccc(NC(=O)CSC(N)=O)c1C ?
Ans. 116987

----------
Target: LasR transcriptional activator (Pseudomonas aeruginosa)
Construct: expressed in transfected cells; host or cells: Pseudomonas putida F117 carrying plasmid pKRC12 (lasR, PlasB-gfp)
Experiment: Screen signal of thiocarbamate compounds (Table 1), GFP AHL sensor strain with LasR
Assay type: cell-based
Each record here notes measured Signal 674/875.

# example entries with known answers
NC(=O)SCC(=O)Nc1ccccc1Br: 1811011
NC(=O)SCC(=O)Nc1ccccc1Cl: 867440
Cc1ccc(NC(=O)CSC(N)=O)cc1Cl: 652341
NC(=O)SCC(=O)Nc1ccccc1O: 35234
NC(=O)SCC(=O)Nc1ccc(Cl)c(Cl)c1: 686157

Qu. Lab request: please report Signal 674/875 under test system LasR transcriptional activator (Pseudomonas aeruginosa) for COC(=O)c1ccccc1NC(=O)CSC(N)=O
Ans. 1041625

Qu. And COc1ccc(NC(=O)CSC(N)=O)c(OC)c1 ?
Ans. 1769017

Qu. And Cc1cccc(NC(=O)CSC(N)=O)c1 ?
Ans. 1575457

Qu. And NC(=O)SCC(=O)Nc1ccc(I)cc1 ?
Ans. 1805793

Qu. And Cc1cccc(NC(=O)CSC(N)=O)c1C ?
Ans. 703195

----------
Each record here notes measured Signal 673/674.
Target: LasR transcriptional activator (Pseudomonas aeruginosa)
Construct: expressed in transfected cells; host or cells: Pseudomonas putida F117 carrying plasmid pKRC12 (lasR, PlasB-gfp)
Experiment: Screen signal of thiocarbamate compounds (Table 1), GFP AHL sensor strain with LasR
Format: cell-based
Excerpt: A screening system with green fluorescent protein as a reporter gene was adapted in a non-pathogenic species, Pseudomonas putida, closely related to Pseudomonas aeruginosa. A key element involved in the regulation of Pseudomonas aeruginosa, LasR, was engineered into the GFP construct (see FIG. 2), such that expression of GFP is linked to quorum sensing. […]
The answer should be a number; do not append a unit.

CC(=O)c1ccc(NC(=O)CSC(N)=O)cc1: 594209
NC(=O)SCC(=O)Nc1ccc(Br)cc1: 122318
COC(=O)c1ccccc1NC(=O)CSC(N)=O: 176618
COc1cccc(NC(=O)CSC(N)=O)c1: 243693
COC(=O)c1ccc(NC(=O)CSC(N)=O)cc1: 186369

Qu. Which Signal 673/674 is listed for NC(=O)SCC(=O)Nc1ccc(I)cc1 ?
Ans. 386242

Qu. And COc1ccc(NC(=O)CSC(N)=O)c(OC)c1 ?
Ans. 332745

Qu. And NC(=O)SCC(=O)Nc1ccc(Cl)c(Cl)c1 ?
Ans. 171491

Qu. And NC(=O)SCC(=O)Nc1ccccc1Cl ?
Ans. 145117

Qu. And Cc1ccc(NC(=O)CSC(N)=O)cc1Cl ?
Ans. 223255

Qu. And Cc1ccc(NC(=O)CSC(N)=O)c(C)c1 ?
Ans. 134098

Qu. And NC(=O)SCC(=O)Nc1ccccc1Br ?
Ans. 227644

Qu. And COc1ccc(NC(=O)CSC(N)=O)cc1 ?
Ans. 341731

Qu. And Cc1cccc(NC(=O)CSC(N)=O)c1 ?
Ans. 285870

Qu. And NC(=O)SCC(=O)Nc1cccc(F)c1 ?
Ans. 97648

Qu. And CCOC(=O)c1ccccc1NC(=O)CSC(N)=O ?
Ans. 31840

Qu. And COc1ccccc1NC(=O)CSC(N)=O ?
Ans. 169923

Qu. And NC(=O)SCC(=O)Nc1cccc(Cl)c1 ?
Ans. 87420

Qu. And Cc1cccc(NC(=O)CSC(N)=O)c1C ?
Ans. 131695

Qu. And NC(=O)SCC(=O)Nc1ccccc1O ?
Ans. 33599

Qu. And Cc1ccc(Cl)cc1NC(=O)CSC(N)=O ?
Ans. 98180

----------
Molecular target: LasR transcriptional activator (Pseudomonas aeruginosa, UniProt P25084)
Construct: expressed in transfected cells; host or cells: Pseudomonas putida F117 carrying plasmid pKRC12 (lasR, PlasB-gfp)
Test: P. putida F117 pKRC12 lasB-GFP reporter assay (secondary screens)
Format: cell-based
Details: compounds 10 μM; 3oxoC12HSL 50 nM; relative fluorescence (fluorescence divided by absorbance at 600 nm) as percent of AHL induced control
Each record here notes measured % Activity of AHL Standard, 3 oxo C12HSL.
Answer with a number only, understood to be in %.

# example entries with known answers
NC(=O)SCC(=O)Nc1ccc(Cl)c(Cl)c1: 87.70
COc1cccc(NC(=O)CSC(N)=O)c1: 53.30
COC(=O)c1ccc(NC(=O)CSC(N)=O)cc1: 101.0

Qu. Which % Activity of AHL Standard, 3 oxo C12HSL is listed for Cc1ccc(NC(=O)CSC(N)=O)cc1Cl ?
Ans. 41.63

Qu. And NC(=O)SCC(=O)Nc1cccc(O)c1 ?
Ans. 49.68

----------
Biological target: LasR transcriptional activator (Pseudomonas aeruginosa, UniProt P25084)
Construct: expressed in transfected cells; host or cells: Pseudomonas putida F117 carrying plasmid pKRC12 (lasR, PlasB-gfp)
Assay: P. putida F117 pKRC12 lasB-GFP reporter assay (secondary screens)
Format: cell-based
Settings: compounds 10 μM; 3oxoC10HSL 100 nM; relative fluorescence (fluorescence divided by absorbance at 600 nm) as percent of AHL induced control
Each record here notes measured % Activity of AHL Standard, 3 oxo C10HSL.

# example entries with known answers
COC(=O)c1ccc(NC(=O)CSC(N)=O)cc1: 57.60%
COc1ccc(NC(=O)CSC(N)=O)cc1: 36.45%
NC(=O)SCC(=O)Nc1ccc(Cl)c(Cl)c1: 40.50%

Qu. Lab request: please report % Activity of AHL Standard, 3 oxo C10HSL under test system LasR transcriptional activator (Pseudomonas aeruginosa, UniProt P25084) for NC(=O)SCC(=O)Nc1cccc(F)c1
Ans. 33.60%

Qu. And CCOC(=O)c1ccccc1NC(=O)CSC(N)=O ?
Ans. 35.50%

Qu. And Cc1ccc(Cl)cc1NC(=O)CSC(N)=O ?
Ans. 56.73%

Qu. And Cc1ccc(NC(=O)CSC(N)=O)c(C)c1 ?
Ans. 40.00%

Qu. And NC(=O)SCC(=O)Nc1cccc(Cl)c1 ?
Ans. 43.30%

----------
Biological target: LasR transcriptional activator (Pseudomonas aeruginosa, UniProt P25084)
Construct: expressed in transfected cells; host or cells: Pseudomonas putida F117 carrying plasmid pKRC12 (lasR, PlasB-gfp)
Assay: Screen signal of thiocarbamate compounds (Table 1), GFP AHL sensor strain with LasR
Assay type: cell-based
parameter: Signal 674/875
The answer should be a number; do not append a unit.

Cc1ccc(NC(=O)CSC(N)=O)c(C)c1 [Compound 5955325]: 694077
NC(=O)SCC(=O)Nc1cccc(F)c1 [Compound 5949713]: 265386
CCOC(=O)c1ccccc1NC(=O)CSC(N)=O [Compound 5952120]: 32358

Qu. Which Signal 674/875 is listed for NC(=O)SCC(=O)Nc1cccc(Cl)c1 [Compound 5953997] ?
Ans. 218815

Qu. And COc1ccc(NC(=O)CSC(N)=O)cc1 [Compound 5948690] ?
Ans. 1742777

Qu. And NC(=O)SCC(=O)Nc1ccc(Br)cc1 [Compound 5948339] ?
Ans. 382242

Qu. And COc1cccc(NC(=O)CSC(N)=O)c1 [Compound 5956868] ?
Ans. 1277307

Qu. And COc1ccccc1NC(=O)CSC(N)=O [Compound 5947535] ?
Ans. 572429

Qu. And COC(=O)c1ccc(NC(=O)CSC(N)=O)cc1 [Compound 5952057] ?
Ans. 1124336

Qu. And CC(=O)c1ccc(NC(=O)CSC(N)=O)cc1 [Compound 5952389] ?
Ans. 1805803

Qu. And Cc1ccc(Cl)cc1NC(=O)CSC(N)=O [Compound 5948544] ?
Ans. 418594
